# target of assay: T1, CRBN, Q96SW2;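 also: pooled lentiviral library of zinc finger degron-EGFP fusions in mCherry-positive Jurkat cells, FACS-sorted after compound exposure, with degron abundance counted by next-generation sequencing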
# T1 chain: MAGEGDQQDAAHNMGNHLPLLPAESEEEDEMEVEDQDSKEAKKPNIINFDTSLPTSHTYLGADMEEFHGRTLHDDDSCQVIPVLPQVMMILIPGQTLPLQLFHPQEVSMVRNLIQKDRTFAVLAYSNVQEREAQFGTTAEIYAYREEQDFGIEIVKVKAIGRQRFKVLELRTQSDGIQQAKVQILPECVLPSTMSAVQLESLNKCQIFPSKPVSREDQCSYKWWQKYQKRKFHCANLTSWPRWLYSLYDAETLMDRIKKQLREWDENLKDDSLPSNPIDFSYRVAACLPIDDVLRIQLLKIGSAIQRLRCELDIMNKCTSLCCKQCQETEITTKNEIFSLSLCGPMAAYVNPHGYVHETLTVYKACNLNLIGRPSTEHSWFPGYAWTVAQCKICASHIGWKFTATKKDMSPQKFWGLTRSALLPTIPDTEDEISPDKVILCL
# test details: log2 fold change of degron read counts, EGFP-low vs EGFP+ sorted cells (limma voom), compound-induced degradation; higher = more compound-induced degradation of the degron-EGFP fusion; degrons are variants of IKZF1/3 zinc finger 2; compound dose not given here
# measurement context: Jurkat; 18 h; compound: compound 22 (5-morpholino-thalidomide)
In all, about 8,300 sequences were measured (“log2 fold change of degron read counts, EGFP-low vs EGFP+ sorted cells (limma voom), compound-induced degradation”: median about -1.1, highest 2% from about 3.2 on). The sample holds the highest values, similar sequences and a random draw of the others, so the mix is not that of the screen.

monomer sequence | log2 fold change of degron read counts
LVCPICGFPCTQKGNLLRHIKL [46L_47V_49P_50I_52G_53F_54P_55C_67L_, Q9UKT9] | 1.61
FFCEICGHMFTQKGNLLRHIKL [46F_47F_49E_50I_52G_53H_54M_55F_67L_, Q9UKT9] | -2.18
FACNICGACFTQKGNLLRHIKL [46F_47A_49N_50I_52G_53A_54C_55F_67L_, Q9UKT9] | 1.95
FECNQCGRSFTQKGNLLRHIKL [46F_47E_49N_50Q_52G_53R_54S_55F_67L_, Q9UKT9] | -4.04
FTCPICGHLFTQKGNLLRHIKL [46F_47T_49P_50I_52G_53H_54L_55F_67L_, Q9UKT9] | -2.6
FFCDQCGAAFTQKGNLLRHIKL [46F_47F_49D_50Q_52G_53A_54A_55F_67L_, Q9UKT9] | -0.343
FWCEQCGAKFTQKGNLLRHIKL [46F_47W_49E_50Q_52G_53A_54K_55F_67L_, Q9UKT9] | 1.97
FKCPICGHGFTQKGNLLRHIKL [46F_47K_49P_50I_52G_53H_54G_55F_67L_, Q9UKT9] | -2.29
FWCEQCGARFTQKGNLLRHIKL [46F_47W_49E_50Q_52G_53A_54R_55F_67L_, Q9UKT9] | 3.12
